Hey, just so you know, these numbers are from PubChem BioAssay (NCI).

Tested on: HCC-2998 colon
experiment: NCI tumour cell line growth inhibition, 48 h
metric.name: TGI

C/C(CC(=O)N(C(C)C)C(C)C)=N\NC(=O)c1ccncc1 :: > 100 µM
COc1cc(NC(=O)Nc2cnc(Nc3ccc(N4CCOCC4)cc3)nc2Oc2cccc(OC)c2)cc(OC)c1 :: 3.62 µM
Cc1[nH]c(=O)[nH]c(=S)c1C(=O)Nc1cccc2cc3ccccc3cc12 :: > 100 µM

Any idea what TGI was measured for CCOC(=O)C1COc2cc(-c3cc(=O)c4ccccc4o3)ccc2O1 (stereo not given) ?
> 100 µM

Value lookup for TGI; key = CCOc1ccc(C(CN2CCOCC2)C(C)=O)cc1OC (stereo not given)
32.3 µM

Dear colleague, I am looking for the recorded TGI of the following compound: CC(=O)CC(=O)CCC(=O)O
> 100 µM

I would be grateful if you could share the reported TGI for COc1cc(/C=C(\C#N)C(N)=C(C#N)C#N)cc(O)c1O .
> 100 µM

Which TGI is listed for CN1CCc2c1nc(-c1ccc([N+](=O)[O-])cc1)c1c2N(C)CC1 ?
> 100 µM

Could you tell me which TGI is on file for Nc1ccc2c(c1)c(N)nn2C(=O)Nc1ccc(Cc2ccccc2)cc1 ?
14.8 µM

TGI for O=C1CN(/N=C/c2ccc(-c3ccc(F)cc3)o2)C(=O)N1 ?
> 100 µM

Given the entry CC(C)C1(O)C(=O)N(c2c(F)c(F)c(F)c(F)c2F)C(=S)N1CCSc1ccccc1 (stereo not given) , report its measured TGI.
34.8 µM

---

System: UACC-257 melanoma
experiment: NCI tumour cell line growth inhibition, 48 h
metric.name: TGI

CC(C)OC1OC(CO)C(O)CC1n1cc(F)c(=O)[nH]c1=O (stereo not drawn) :: > 100 µM
CC(C)C1(O)C(=O)N(c2c(F)c(F)c(F)c(F)c2F)C(=S)N1CCSc1ccccc1 (stereo not drawn) :: 32.4 µM
Nc1nc(Cl)cc(NCC2(O)CCCC2)n1 :: > 100 µM
C=CC1CN2CCC1CC2C(O)c1ccnc2ccccc12 (stereo not drawn) :: > 100 µM
CC(C)C(=O)Oc1cc2c(=O)oc3c(OC(=O)C(C)C)c(OC(=O)C(C)C)cc4c(=O)oc(c1OC(=O)C(C)C)c2c34 :: > 100 µM
C=[CH][Sn]([CH]=C)([O]c1cccc2cccnc12)[O]c1cccc2cccnc12 :: 7.66 µM
COc1ccc2nc3n(c2c1)CCc1cc(OC)c(OC)cc1-3 :: > 100 µM
Cc1cc2cc3c(cc2c(-c2ccc(N)cc2)n1)OCO3 :: > 100 µM

Using the record for CN1CCc2c1nc(-c1ccc([N+](=O)[O-])cc1)c1c2N(C)CC1 , report its TGI.
> 100 µM

May I ask what TGI has been recorded for CSc1ccc(C(=O)C(=O)c2ccc(SC)s2)s1 ?
> 10 µM

Any idea what TGI was measured for CC1CC/C(=C\c2ccc(Cl)cc2)c2nc(N)c(C#N)c(-c3ccc(Cl)cc3)c21 (stereo not drawn) ?
> 100 µM

So what does the record say about TGI for COc1ccc(S(=O)(=O)N(C)CC(=O)O)cc1 ?
> 100 µM

Which TGI value belongs to NC1=NCC(CN2CCCC2)O1 (stereo not drawn) ?
> 100 µM
